Quick reference: solubility (mole fraction) of the listed items.
- EXPERIMENTAL PARAMETERS: in n-butanol, 313.15 K
Give the figure only, with no unit attached.

[
  {
    "SMILES STR": "O=C1C[C@@H](c2ccc(O)cc2)Oc2cc(O)cc(O)c21",
    "PROPERTY NAME": "solubility (mole fraction)",
    "VAL": 0.00299
  }
]

Below: the item to evaluate.
Prompt line: Which measured solubility (mole fraction) value corresponds to "C[C@@H]1O[C@@H](O[C@H]2[C@H](Oc3cc(O)c4c(c3)O[C@H](c3ccc(O)cc3)CC4=O)O[C@H](CO)[C@@H](O)[C@@H]2O)[C@H](O)[C@H](O)[C@H]1O" ?
Response line: 0.000218

Where these numbers come from: BigSolDB 2.1
